Hey, just so you know, these numbers are from ChEMBL document CHEMBL4020715.

compounds and their reported Efficacy
Molecular target: Vitamin D3 receptor A (Danio rerio)
Sequence (whole entry): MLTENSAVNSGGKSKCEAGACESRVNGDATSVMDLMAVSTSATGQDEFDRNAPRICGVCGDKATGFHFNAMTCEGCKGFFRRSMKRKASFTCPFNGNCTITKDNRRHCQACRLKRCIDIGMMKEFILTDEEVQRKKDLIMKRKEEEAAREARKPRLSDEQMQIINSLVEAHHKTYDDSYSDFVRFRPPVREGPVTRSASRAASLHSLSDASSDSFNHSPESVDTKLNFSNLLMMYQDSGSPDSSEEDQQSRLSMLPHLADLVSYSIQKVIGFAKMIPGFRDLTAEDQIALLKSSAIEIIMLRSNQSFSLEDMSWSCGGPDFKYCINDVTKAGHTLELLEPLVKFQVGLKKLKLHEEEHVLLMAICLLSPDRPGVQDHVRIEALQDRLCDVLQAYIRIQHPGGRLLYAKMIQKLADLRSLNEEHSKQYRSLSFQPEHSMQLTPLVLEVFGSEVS
Test: Agonist activity at zebrafish VDR LBD (156 to 453 residues) expressed in HEK293 EBNA cells harboring human CYP24-Tk-Luc plasmid assessed as induction of CYP24a1 gene at 1000 nM after 18 hrs by dual-luciferase transcriptional reporter gene assay relative to control
Type: cell-based

The following compounds have reported results that may help.
{"columns": ["smiles_notation", "assay_target", "parameter", "experimental_result"],
 "data": [
  ["C=C1/C(=C\\C=C2/CCC[C@]3(C)[C@@H]([C@H](C)CCCC(C)(C)O)CC[C@@H]23)C[C@@H](O)C[C@H]1O", "Vitamin D3 receptor A (Danio rerio)", "Efficacy", "100%"],
  ["C=C1/C(=C\\C=C2/CCC[C@]3(C)[C@@H]([C@H](C)[C@@H]4CC[C@H](C(C)(C)O)O4)CC[C@@H]23)C[C@@H](O)C[C@H]1O", "Vitamin D3 receptor A (Danio rerio)", "Efficacy", "47%"],
  ["C=C1/C(=C\\C=C2/CCC[C@]3(C)[C@@H]([C@H](C)[C@@H]4CC[C@@H](C(C)(C)O)O4)CC[C@@H]23)C[C@@H](O)C[C@H]1O", "Vitamin D3 receptor A (Danio rerio)", "Efficacy", "90%"]
]}

Kindly consider the entry below.
Note Efficacy for the compound shown: C=C1/C(=C\C=C2/CCC[C@]3(C)[C@@H]([C@H](C)[C@H]4CC[C@@H](C(C)(C)O)O4)CC[C@@H]23)C[C@@H](O)C[C@H]1O
100%
